System: HEK-293T
Assay: Multiplex assay against HEK293T
Assay type: toxicity, cell-based
Conditions: human, 24 h, 10 µM, compound concentration 10 uM, replicate 1
endpoint label: Population Pyknosed Nuclei (%)
// return numeric value only (unit: %, not printed)

Identify Population Pyknosed Nuclei (%) associated with the compound "O=C(CCCc1ccccc1)Nc1nc2ccccc2c(=O)s1"
9

Tell me its Population Pyknosed Nuclei (%) given Cl.N=C(N)NC(=O)Cc1c(Cl)cccc1Cl [GUANFACINE HYDROCHLORIDE] as the entry.
12

Name the recorded Population Pyknosed Nuclei (%) of the compound listed here: "C[C@H](N)COC(=O)[C@@H](CCCCN)NC(=O)Cc1c(-c2ccc3ccccc3c2)[nH]c2c1ccc1ccccc12"
14

Give recorded Population Pyknosed Nuclei (%). "CC[C@@H](C)Nc1nc(C)nc2c(-c3ccc(OC)nc3C)c(C)nn12"
14

Determine from records and report Population Pyknosed Nuclei (%) for "CCCCC1=NC2(CCCC2)C(=O)N1Cc1ccc(-c2ccccc2-c2nnn[nH]2)cc1"
15

Look up and state reported Population Pyknosed Nuclei (%) for "CN[C@@H](C)C(=O)N[C@H](C(=O)N1CCC[C@H]1C(=O)Nc1snnc1-c1ccccc1)C1CCCCC1"
17

Fill in reported Population Pyknosed Nuclei (%) for this entry: Cc1sc2c(c1C)C(c1ccc(Cl)cc1)=N[C@@H](CC(=O)NCCCCCCCCNC(=O)COc1cccc3c1C(=O)N(C1CCC(=O)NC1=O)C3=O)c1nnc(C)n1-2 (some centres undefined)
24

Look up and report measured Population Pyknosed Nuclei (%) for this entry: O=C(NCCN1CCC(n2c(=O)[nH]c3cc(Cl)ccc32)CC1)c1ccc(F)cc1 [HALOPEMIDE]
19

Write down Population Pyknosed Nuclei (%) measured for item "NCCc1cn(S(=O)(=O)c2c(Cl)nc3sccn23)c2ccccc12.O=C(O)C(=O)O"
48

====

Test system: HEK-293T
Experiment: Multiplex assay against HEK293T
Type: toxicity, cell-based
Conditions: human, 48 h, 10 µM, compound concentration 10 uM, replicate 1
Would you kindly list Population Tubulin-Different-Phenotype (%) for each of these compounds?
Reply numerically in %, unit not repeated.

Return value of Population Tubulin-Different-Phenotype (%) for input "CN(C)C(=O)Cn1cc(-c2ccc(-c3cncc4ccccc34)cc2)cn1" , no commentary.
30

Give the reported value of Population Tubulin-Different-Phenotype (%) for this record: "Cc1cccc(NC(=O)CN2CCC(c3ccccn3)CC2)c1.Cl.Cl"
26

Entry "N#Cc1c(Oc2cccc(OS(=O)(=O)CCCC(F)(F)F)c2)cccc1C(F)(F)F" needs its Population Tubulin-Different-Phenotype (%) filled in; supply it.
29

Provide Population Tubulin-Different-Phenotype (%) value for the following compound: "CC(C)COc1ccc(CNC(=O)N(Cc2ccc(F)cc2)C2CCN(C)CC2)cc1"
58

Using known records, supply Population Tubulin-Different-Phenotype (%) for "NCCc1cn(S(=O)(=O)c2c(Cl)nc3sccn23)c2ccccc12.O=C(O)C(=O)O"
55

Supply Population Tubulin-Different-Phenotype (%) value. Item: Br.CS(=O)(=O)Nc1c(O)ccc2c1CCCC2C1=NCCN1 (centres undefined)
12

Entry COC[C@@H](c1ccc(C(F)(F)F)cc1)N1CCN(C2(C)CCN(C(=O)c3c(C)ncnc3C)CC2)C[C@@H]1C.O=C(O)/C=C\C(=O)O [VICRIVIROC MALEATE] needs its Population Tubulin-Different-Phenotype (%) filled in; supply it.
35

Return Population Tubulin-Different-Phenotype (%) (reported value) for this compound: "Cc1cnc(-c2cc(N3CCN(C(=O)CCS(C)(=O)=O)CC3)ncc2Cl)c(C)c1"
17

Retrieve Population Tubulin-Different-Phenotype (%) measured for "COc1cccc2c1c(NS(=O)(=O)c1ccc(Cl)s1)nn2Cc1cccc(CNC(=O)C(C)(C)O)c1" and print it.
16

====

Give Population Mitochondria Different-Phenotype (%) for every item shown.
Test system: Fibroblast
Experiment: Multiplex assay against human fibroblast
Assay type: toxicity, cell-based
Settings: 24 h, 10 µM, compound concentration 10 uM, replicate 1
Write down the numeric answer in % and omit the unit.

Check the records and state Population Mitochondria Different-Phenotype (%) for CC(C)(C)c1cc(NC(=O)Nc2ccc(-c3cn4c(n3)sc3cc(OCCN5CCOCC5)ccc34)cc2)no1 [QUIZARTINIB]
21

Report Population Mitochondria Different-Phenotype (%) for "N#Cc1c(Oc2cccc(OS(=O)(=O)CCCC(F)(F)F)c2)cccc1C(F)(F)F"
12

For the compound "CN1CCN(c2cc(-c3ccccc3)nc(N)n2)CC1" , give its measured Population Mitochondria Different-Phenotype (%) value.
6

Identify Population Mitochondria Different-Phenotype (%) associated with the compound "N#Cc1cc(F)cc(-c2nc(-c3ccc(F)cn3)no2)c1"
6

Indicate the recorded Population Mitochondria Different-Phenotype (%) value for this compound: "CCCOc1ccc2[nH]cc(C3=CCNCC3)c2n1.Cl"
12

Please report Population Mitochondria Different-Phenotype (%) for the following compound: COC[C@@H](c1ccc(C(F)(F)F)cc1)N1CCN(C2(C)CCN(C(=O)c3c(C)ncnc3C)CC2)C[C@@H]1C.O=C(O)/C=C\C(=O)O [VICRIVIROC MALEATE]
5

====

System: Fibroblast
Test: Multiplex assay against human fibroblast
Format: toxicity, cell-based
Conditions: 24 h, 1 µM, compound concentration 1 uM, replicate 1
Answer each item with its documented Population Apoptotic (%).
Express the result in % but write the number alone.

Provide measured Population Apoptotic (%) value, entry: "CC(C)c1noc(N2CCC(COc3ccc(-c4ccc(S(C)(=O)=O)cc4)nc3)CC2)n1"
50

Supply measured Population Apoptotic (%) of "CCCCC1=NC2(CCCC2)C(=O)N1Cc1ccc(-c2ccccc2-c2nnn[nH]2)cc1" in your reply.
47

Report Population Apoptotic (%) for Cl.N=C(N)NC(=O)Cc1c(Cl)cccc1Cl [GUANFACINE HYDROCHLORIDE]
58

Quickly give me recorded Population Apoptotic (%) for COC[C@@H](c1ccc(C(F)(F)F)cc1)N1CCN(C2(C)CCN(C(=O)c3c(C)ncnc3C)CC2)C[C@@H]1C.O=C(O)/C=C\C(=O)O [VICRIVIROC MALEATE]
66

Dear colleague, please send me the reported Population Apoptotic (%) for "CC(C)(C)c1cc(NC(=O)Nc2ccc(-c3cn4c(n3)sc3cc(OCCN5CCOCC5)ccc34)cc2)no1" when you can.
58

Identify measured Population Apoptotic (%) associated with "CCCCC(=O)N(Cc1ccc(-c2ccccc2-c2nnn[nH]2)cc1)[C@H](C(=O)O)C(C)C"
66

Identify Population Apoptotic (%) associated with the molecule "NCCc1cn(S(=O)(=O)c2c(Cl)nc3sccn23)c2ccccc12.O=C(O)C(=O)O"
50

Answer with the recorded Population Apoptotic (%) for the molecule listed here: "N#Cc1cc(F)cc(-c2nc(-c3ccc(F)cn3)no2)c1"
40

Provide Population Apoptotic (%) value for the following molecule: O=C(NCCN1CCC(n2c(=O)[nH]c3cc(Cl)ccc32)CC1)c1ccc(F)cc1 [HALOPEMIDE]
58

====

Tested on: Fibroblast
Assay: Multiplex assay against human fibroblast
Type: toxicity, cell-based
Settings: 12 h, 10 µM, compound concentration 10 uM, replicate 1
Assign class by Population Healthy Nuclei (%): not lower than 60% means yes (1); lower than 60% means no (0).

# bool: Population Healthy Nuclei (%) of CC[C@@H](C)Nc1nc(C)nc2c(-c3ccc(OC)nc3C)c(C)nn12 [PEXACERFONT] >= 60%
no (0)

Determine whether measured Population Healthy Nuclei (%) meets or exceeds 60% for "CN(C)C(=O)Cn1cc(-c2ccc(-c3cncc4ccccc34)cc2)cn1"
yes (1)

Is it the case that "Cc1cccc(NC(=O)CN2CCC(c3ccccn3)CC2)c1.Cl.Cl" has Population Healthy Nuclei (%) reaching or exceeding 60%?
yes (1)

Please check the record CCCCC1=NC2(CCCC2)C(=O)N1Cc1ccc(-c2ccccc2-c2nnn[nH]2)cc1 [IRBESARTAN] and state if its Population Healthy Nuclei (%) is at or above 60%.
yes (1)

Could you please find out whether CC(C)c1noc(N2CCC(COc3ccc(-c4ccc(S(C)(=O)=O)cc4)nc3)CC2)n1 [GSK-1292263] has Population Healthy Nuclei (%) that meets 60% or exceeds it?
yes (1)

Please tell me: is the compound Br.CS(=O)(=O)Nc1c(O)ccc2c1CCCC2C1=NCCN1 (stereo not drawn) at or over 60% in terms of Population Healthy Nuclei (%)?
no (0)

Quick check, Population Healthy Nuclei (%) >= 60%? "Cc1noc(-c2ccc(-c3ccc(CC(=O)O)cc3)cc2)c1NC(=O)O[C@H](C)c1ccccc1Cl"
yes (1)

hey, is Population Healthy Nuclei (%) for this one >= 60%? Cl.NCCc1ccc(O)c(O)c1 [DOPAMINE HYDROCHLORIDE]
yes (1)

Decide: is the reported value of Population Healthy Nuclei (%) for "O=C1[C@H](Cc2ccc(O)cc2)N2C(=O)CCN(C(=O)NCc3ccccc3)[C@H]2CN1Cc1cccc2ccccc12" equal to or greater than 60%?
no (0)

Reported Population Healthy Nuclei (%) reaches at least 60% for O=C(NCCN1CCC(n2c(=O)[nH]c3cc(Cl)ccc32)CC1)c1ccc(F)cc1 [HALOPEMIDE] ?
no (0)

Textbook exercise: given the entry Cc1sc2c(c1C)C(c1ccc(Cl)cc1)=N[C@@H](CC(=O)NCCCCCCCCNC(=O)COc1cccc3c1C(=O)N(C1CCC(=O)NC1=O)C3=O)c1nnc(C)n1-2 (stereo partly drawn) , state whether its Population Healthy Nuclei (%) is greater than or equal to 60%.
no (0)

Is Population Healthy Nuclei (%) for CC(C)COc1ccc(CNC(=O)N(Cc2ccc(F)cc2)C2CCN(C)CC2)cc1 [PIMAVANSERIN] at or above 60%?
yes (1)

Entry "NCCc1cn(S(=O)(=O)c2c(Cl)nc3sccn23)c2ccccc12.O=C(O)C(=O)O" : is its Population Healthy Nuclei (%) no less than 60%?
no (0)

Please indicate if the recorded Population Healthy Nuclei (%) for "Cc1onc(-c2ccccc2Cl)c1C(=O)N(C)c1ccc(Cl)cc1" meets or exceeds 60%.
yes (1)

Answer whether Population Healthy Nuclei (%) of Cl.N=C(N)NC(=O)Cc1c(Cl)cccc1Cl [GUANFACINE HYDROCHLORIDE] is greater than or equal to 60%.
yes (1)

Is Population Healthy Nuclei (%) for "CCCOc1ccc2[nH]cc(C3=CCNCC3)c2n1.Cl" at or above 60%?
yes (1)

Population Healthy Nuclei (%) >= 60% for "C[C@H](N)COC(=O)[C@@H](CCCCN)NC(=O)Cc1c(-c2ccc3ccccc3c2)[nH]c2c1ccc1ccccc12" ?
yes (1)

For this compound, is measured Population Healthy Nuclei (%) 60% or higher? "CC(/C=C1\SC(=S)N(CCCC(=O)Nc2ccc(C(=O)O)c(O)c2)C1=O)=C\c1ccccc1"
yes (1)

Determine whether measured Population Healthy Nuclei (%) meets or exceeds 60% for CC(C)(C)c1cc(NC(=O)Nc2ccc(-c3cn4c(n3)sc3cc(OCCN5CCOCC5)ccc34)cc2)no1 [QUIZARTINIB]
no (0)
